TESTED_TARGET: M1 (Homo sapiens)
Construct: expressed in transfected cells
Sequence (P11229 1-460): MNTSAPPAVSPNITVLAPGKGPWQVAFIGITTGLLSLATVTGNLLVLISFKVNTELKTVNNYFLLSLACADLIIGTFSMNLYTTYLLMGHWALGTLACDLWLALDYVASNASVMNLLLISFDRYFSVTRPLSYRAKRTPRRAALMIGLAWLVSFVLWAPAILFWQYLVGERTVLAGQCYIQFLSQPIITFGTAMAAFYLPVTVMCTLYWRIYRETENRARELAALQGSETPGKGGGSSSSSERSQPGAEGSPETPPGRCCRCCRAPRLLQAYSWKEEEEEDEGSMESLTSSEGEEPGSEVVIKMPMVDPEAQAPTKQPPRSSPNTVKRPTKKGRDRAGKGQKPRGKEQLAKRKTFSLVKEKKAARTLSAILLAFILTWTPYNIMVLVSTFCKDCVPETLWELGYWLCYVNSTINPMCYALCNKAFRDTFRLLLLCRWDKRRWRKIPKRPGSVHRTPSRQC
PROTOCOL_NOTES: Calcium mobilization, human M1 CHO cells (agonist and PAM modes)
Format: cell-based
SETUP_CONDITIONS: agonist mode; read-out: hM1 Agonist EC50
MEASURED_PARAMETER: EC50

Here is how some compounds turned out for EC50.
{"SMILES_CODE": "[2H]C1([2H])c2ncccc2C(=O)N1Cc1c(F)cc(-c2cccc3nn(C([2H])([2H])[2H])cc23)cc1F", "EC50": "> 30 µM"}
{"SMILES_CODE": "Cn1cc2c(-c3cc(F)c(CN4Cc5ncccc5C4=O)c(F)c3)cccc2n1", "EC50": "> 30 µM"}

Now for another entry.
Give the reported value of EC50 for this record: [2H]C1([2H])c2ncccc2C(=O)N1Cc1c(F)cc(-c2cccc3nn(C)cc23)cc1F
> 30 µM
